B1: KLHDC10 (parent)
chain: CPIIRIPNRFLRGHRPPPARSGHR

# Variants of: B1
# ASSAY_INFO: protein stability index of a GFP-peptide fusion (GPS, HEK-293T) (PSI 1-6); higher = more stable;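 further: lentivirally expressed fusions sorted by FACS into six bins by GFP to DsRed ratio, PSI derived from sequencing read proportions per bin multiplied by bin number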
# TEST_SETTINGS: c terminus: a fixed tail appended
Assignment: determine reported protein stability index for the given variants.
Just the number, please.

Qu. For `N8E` , what is its reported protein stability index?
Ans. 2.15

Qu. Entry to check: `H14Y`
Ans. 1.33

Qu. Entry to check: `R5I`
Ans. 2.81
